The entries below are paired with their reported IC50.
- assayed.target: VEGFR3 (Homo sapiens, UniProt P35916)
- Sequence (P35916 25-1363): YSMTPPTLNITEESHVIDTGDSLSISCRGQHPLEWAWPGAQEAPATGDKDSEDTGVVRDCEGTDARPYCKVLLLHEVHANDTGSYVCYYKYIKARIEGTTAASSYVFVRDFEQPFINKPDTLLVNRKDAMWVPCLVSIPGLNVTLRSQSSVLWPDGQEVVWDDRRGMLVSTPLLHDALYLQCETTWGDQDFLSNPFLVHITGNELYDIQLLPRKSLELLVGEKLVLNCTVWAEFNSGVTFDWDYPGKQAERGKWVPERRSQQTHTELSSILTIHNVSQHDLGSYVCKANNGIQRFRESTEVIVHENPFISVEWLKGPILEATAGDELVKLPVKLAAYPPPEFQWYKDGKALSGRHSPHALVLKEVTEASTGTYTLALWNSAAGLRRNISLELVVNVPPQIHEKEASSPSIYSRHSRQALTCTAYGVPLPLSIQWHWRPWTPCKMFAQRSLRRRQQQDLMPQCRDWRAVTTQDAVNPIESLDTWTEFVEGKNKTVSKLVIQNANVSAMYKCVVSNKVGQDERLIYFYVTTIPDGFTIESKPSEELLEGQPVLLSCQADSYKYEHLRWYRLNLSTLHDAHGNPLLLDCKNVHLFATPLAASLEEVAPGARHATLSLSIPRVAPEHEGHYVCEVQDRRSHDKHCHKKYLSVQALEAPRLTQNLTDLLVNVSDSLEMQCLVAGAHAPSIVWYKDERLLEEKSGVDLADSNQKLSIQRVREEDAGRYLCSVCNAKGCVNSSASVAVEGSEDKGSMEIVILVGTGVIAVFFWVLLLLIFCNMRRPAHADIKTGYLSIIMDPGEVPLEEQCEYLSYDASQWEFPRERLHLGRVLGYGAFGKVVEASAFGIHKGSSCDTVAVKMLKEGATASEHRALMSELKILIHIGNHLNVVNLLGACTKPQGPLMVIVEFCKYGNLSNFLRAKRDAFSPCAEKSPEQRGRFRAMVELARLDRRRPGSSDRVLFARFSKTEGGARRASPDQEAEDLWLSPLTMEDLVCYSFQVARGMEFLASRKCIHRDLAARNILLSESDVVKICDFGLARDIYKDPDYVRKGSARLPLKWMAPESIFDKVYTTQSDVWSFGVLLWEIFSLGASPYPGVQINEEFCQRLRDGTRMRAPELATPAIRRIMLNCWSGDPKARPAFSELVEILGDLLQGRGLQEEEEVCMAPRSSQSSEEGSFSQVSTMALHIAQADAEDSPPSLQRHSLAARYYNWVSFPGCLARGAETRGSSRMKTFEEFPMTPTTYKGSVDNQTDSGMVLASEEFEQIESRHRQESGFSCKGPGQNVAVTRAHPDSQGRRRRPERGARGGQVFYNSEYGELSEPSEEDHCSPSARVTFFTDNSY

Some entries whose results are on file:
compound.string	IC50
CNC(=O)c1ccccc1Sc1ccc2c(NC(=O)NCCN3CCN(C)CC3)n[nH]c2c1	> 100 nM
CNC(=O)c1ccccc1Sc1ccc2c(/C=C/c3ccc(O)cn3)n[nH]c2c1	≤ 1 nM
CNC(=O)c1ccccc1Sc1ccc2c(/C=C/c3ccc(OCCN4CCN(C)CC4)cn3)n[nH]c2c1	≤ 1 nM
O=C(NC1CC1)c1cccc(F)c1Sc1ccc2c(/C=C/c3cnn(CCCN4CCCC4)c3)n[nH]c2c1	10 to 100 nM
CNC(=O)c1ccccc1Sc1ccc2c(/C=C/c3ccc(OC[C@H]4CCN(C)C4)cn3)n[nH]c2c1	1 to 10 nM

Please give measured IC50 of the following entry: `CN1CCN(c2ccc(/C=C/c3n[nH]c4cc(Sc5ccccc5C(=O)NC5CC5)ccc34)nc2)CC1`
≤ 1 nM

Please give measured IC50 of the following entry: `CNC(=O)c1ccccc1Sc1ccc2c(/C=C/c3ccc(OCCC4CCN(C)CC4)cn3)n[nH]c2c1`
≤ 1 nM

Please give measured IC50 of the following entry: `CNC(=O)c1ccccc1Sc1ccc2c(/C=C/c3ccn(CCN4CCCC4)n3)n[nH]c2c1`
≤ 1 nM

###

- Tested on: melanin
- method.notes: Compound binding to melanin
- Type: in vitro ADME
- reported.conditions: cuttlefish (Sepia officinalis), melanin suspension (1 mg/mL), percentage of free drug (not bound to melanin), 2 µM compound, melanin 1 mg/mL in PBS pH 7.4, 37°C
The entries below are paired with their reported fraction unbound at 2 h, 2 µM.

compound.string	assayed.target	measured
CNC(=O)c1ccccc1Sc1ccn2c(/C=C/c3ccccn3)ncc2c1	melanin	0.01 to 0.05
CCN(CC)Cc1ccc(/C=C/c2n[nH]c3cc(Sc4ccccc4C(=O)NCC(F)F)ccc23)nc1	melanin	> 0.05
O=C(NC1CC1)c1ccccc1Sc1ccc2c(/C=C/c3cccc(CN4CCCC4)n3)n[nH]c2c1	melanin	0.01 to 0.05

--- query ---
Tell me fraction unbound at 2 h, 2 µM of `O=C(NC1CC1)c1ccccc1Sc1ccc2c(/C=C/c3cc(CN4CCCC4)ccn3)n[nH]c2c1` when tested on melanin.
0.01 to 0.05

###

The entries below are paired with their reported IC50.
- assayed.target: VEGFR2 autophosphorylation (pVEGFR2) in HUVEC cells (Homo sapiens, UniProt P35968)
- Construct: endogenous in cells
- Sequence (P35968 20-1356): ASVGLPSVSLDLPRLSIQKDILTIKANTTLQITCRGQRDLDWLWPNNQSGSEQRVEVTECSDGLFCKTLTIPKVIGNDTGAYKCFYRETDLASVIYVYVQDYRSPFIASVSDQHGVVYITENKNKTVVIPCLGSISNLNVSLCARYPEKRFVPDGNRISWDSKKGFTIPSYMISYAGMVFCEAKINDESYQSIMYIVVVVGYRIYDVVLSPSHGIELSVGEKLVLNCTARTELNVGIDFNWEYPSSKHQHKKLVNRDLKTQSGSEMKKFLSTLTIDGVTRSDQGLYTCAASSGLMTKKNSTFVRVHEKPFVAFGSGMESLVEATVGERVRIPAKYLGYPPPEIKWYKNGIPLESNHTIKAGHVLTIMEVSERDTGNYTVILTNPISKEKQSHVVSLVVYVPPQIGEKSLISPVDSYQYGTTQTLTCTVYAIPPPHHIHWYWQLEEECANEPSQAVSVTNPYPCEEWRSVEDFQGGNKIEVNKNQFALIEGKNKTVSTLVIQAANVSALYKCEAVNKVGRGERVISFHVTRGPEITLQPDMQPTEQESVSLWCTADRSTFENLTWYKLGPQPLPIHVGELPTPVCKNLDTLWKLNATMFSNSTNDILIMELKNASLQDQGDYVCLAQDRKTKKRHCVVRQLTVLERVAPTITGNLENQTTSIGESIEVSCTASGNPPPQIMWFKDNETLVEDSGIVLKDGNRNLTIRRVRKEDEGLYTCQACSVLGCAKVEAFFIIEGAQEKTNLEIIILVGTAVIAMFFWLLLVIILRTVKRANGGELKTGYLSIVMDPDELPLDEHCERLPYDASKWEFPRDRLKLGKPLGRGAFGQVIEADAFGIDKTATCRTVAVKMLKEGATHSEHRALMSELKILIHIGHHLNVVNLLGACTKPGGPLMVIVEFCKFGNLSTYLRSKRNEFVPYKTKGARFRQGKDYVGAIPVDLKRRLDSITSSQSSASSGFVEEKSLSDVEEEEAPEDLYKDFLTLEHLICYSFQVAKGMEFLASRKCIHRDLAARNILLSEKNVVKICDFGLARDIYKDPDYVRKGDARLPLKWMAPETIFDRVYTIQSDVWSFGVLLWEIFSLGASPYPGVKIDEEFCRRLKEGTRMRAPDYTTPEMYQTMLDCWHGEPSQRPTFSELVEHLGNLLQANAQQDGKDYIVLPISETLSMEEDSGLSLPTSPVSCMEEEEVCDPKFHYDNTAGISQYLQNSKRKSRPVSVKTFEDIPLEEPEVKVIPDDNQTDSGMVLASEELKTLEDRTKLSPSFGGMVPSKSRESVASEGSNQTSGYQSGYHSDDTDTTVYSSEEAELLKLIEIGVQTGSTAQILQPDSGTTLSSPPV
- method.notes: Inhibition of VEGF-induced VEGFR2 phosphorylation in HUVEC cells (ELISA)
- reported.conditions: 50 ng/mL human VEGF, compound 1 hour
- Procedure: Assay for Compound Inhibition of VEGFR2 Phosphorylation in HUVEC Cells VEGF is a potent growth factor that promotes angiogenesis and vascular permeability. […] Before cell seeding, cells reached 60%-80% confluency in cell culture flasks. […] It was gently shaken for 30 seconds, and the absorbance was measured within 30 minutes using a SpectraMax® 340 PC 384 Absorbance Microplate Reader, reading the optical density value at 450 nm. […]

molecule	assayed.target	IC50
CCN(CC)CCc1ccc(/C=C/c2n[nH]c3cc(Sc4ccccc4C(=O)NC4CC4)ccc23)nc1 [Compound I-77]	VEGFR2 autophosphorylation (pVEGFR2) in HUVEC cells (Homo sapiens, UniProt P35968)	≤ 1 nM

Please give measured IC50 of the following entry: O=C(NC1CC1)c1cccc(F)c1Sc1ccc2c(/C=C/c3cnn(CCCN4CCCC4)c3)n[nH]c2c1 [Compound I-44]
1 to 5 nM

Please give measured IC50 of the following entry: CCNC(=O)c1cc(F)ccc1Sc1ccc2c(/C=C/c3ccc(CN(CC)CC)cn3)n[nH]c2c1 [Compound I-88]
≤ 1 nM

###

- method.notes: Ophthalmic formulations based on polyethylene glycol series vehicles: composition and state (Example 7)
- Format: physicochemical
- reported.conditions: Table 15: 10 mg/mL; Polyethylene glycol 400 10, Hydroxypropyl-β-cyclodextrin 10, Gellan Gum Gelrite 0.3, Poloxamer 188 1, Tris solution and Citric acid
measurement.label: State Description: state

compound.string	measurement.label	measured
CCN(CC)CCc1ccc(/C=C/c2n[nH]c3cc(Sc4ccccc4C(=O)NC4CC4)ccc23)nc1	State Description: state	gel
CCNC(=O)c1cc(F)ccc1Sc1ccc2c(/C=C/c3ccc(CN4CCCC4)cn3)n[nH]c2c1	State Description: state	gel
CCN(CC)Cc1ccc(/C=C/c2n[nH]c3cc(Sc4ccc(F)cc4C(=O)NC4CC4)ccc23)nc1	State Description: state	gel

###

- assayed.target: VEGFR1 (Homo sapiens)
- Sequence (P17948 27-1338): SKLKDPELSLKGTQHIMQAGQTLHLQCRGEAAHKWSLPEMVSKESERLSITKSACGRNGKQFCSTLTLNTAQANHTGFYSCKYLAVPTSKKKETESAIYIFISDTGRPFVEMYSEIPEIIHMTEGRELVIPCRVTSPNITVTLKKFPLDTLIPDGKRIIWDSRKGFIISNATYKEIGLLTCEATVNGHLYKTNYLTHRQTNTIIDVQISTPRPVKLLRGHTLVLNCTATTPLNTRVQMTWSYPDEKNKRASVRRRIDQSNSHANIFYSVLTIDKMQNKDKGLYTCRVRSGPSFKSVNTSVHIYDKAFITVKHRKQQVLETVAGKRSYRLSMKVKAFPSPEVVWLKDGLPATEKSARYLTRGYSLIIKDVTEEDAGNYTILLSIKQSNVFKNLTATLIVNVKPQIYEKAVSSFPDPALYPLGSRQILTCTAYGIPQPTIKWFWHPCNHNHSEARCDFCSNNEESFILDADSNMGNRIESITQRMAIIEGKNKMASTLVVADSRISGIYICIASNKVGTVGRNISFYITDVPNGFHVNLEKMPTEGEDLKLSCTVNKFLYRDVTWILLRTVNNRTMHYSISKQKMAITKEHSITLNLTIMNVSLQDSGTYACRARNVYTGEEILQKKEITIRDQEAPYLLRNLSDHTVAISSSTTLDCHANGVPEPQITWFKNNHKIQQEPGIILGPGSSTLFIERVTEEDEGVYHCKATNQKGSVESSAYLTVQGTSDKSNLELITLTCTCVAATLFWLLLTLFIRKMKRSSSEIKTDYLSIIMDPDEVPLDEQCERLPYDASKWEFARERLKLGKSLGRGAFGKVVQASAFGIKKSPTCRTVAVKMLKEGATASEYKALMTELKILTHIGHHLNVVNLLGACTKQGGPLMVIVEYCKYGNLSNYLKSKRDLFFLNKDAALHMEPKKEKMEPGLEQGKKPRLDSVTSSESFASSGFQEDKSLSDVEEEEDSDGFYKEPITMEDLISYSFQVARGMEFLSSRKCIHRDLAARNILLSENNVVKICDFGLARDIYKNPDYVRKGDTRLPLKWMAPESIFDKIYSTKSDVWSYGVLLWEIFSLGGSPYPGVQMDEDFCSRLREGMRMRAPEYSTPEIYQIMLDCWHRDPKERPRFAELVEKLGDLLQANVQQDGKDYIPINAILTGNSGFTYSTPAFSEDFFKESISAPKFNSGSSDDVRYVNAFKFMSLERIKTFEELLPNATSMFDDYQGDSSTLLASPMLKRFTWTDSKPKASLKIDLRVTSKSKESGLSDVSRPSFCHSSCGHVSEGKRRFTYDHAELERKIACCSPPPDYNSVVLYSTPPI
pIC50: −log10 of the molar value.
measurement.label: pIC50

Some entries whose results are on file:
compound	measured
CNC(=O)c1ccccc1Sc1ccc2c(NC(=O)NCCN3CCN(C)CC3)n[nH]c2c1	< 7.00
CNC(=O)c1ccccc1Sc1ccc2c(/C=C/c3ccc(OC[C@H]4CCN(C)C4)cn3)n[nH]c2c1	≥ 9.00
CNC(=O)c1ccccc1Sc1ccc2c(/C=C/c3ccc(OCC4CCCN4C)cn3)n[nH]c2c1 (stereo not drawn)	≥ 9.00

Tell me pIC50 of `O=C(O)c1ccccc1Sc1ccn2c(/C=C/c3ccccn3)ncc2c1` when tested on VEGFR1 (Homo sapiens).
< 7.00

Tell me pIC50 of `CN1CCN(c2ccc(/C=C/c3n[nH]c4cc(Sc5ccccc5C(=O)NC5CC5)ccc34)nc2)CC1` when tested on VEGFR1 (Homo sapiens).
≥ 9.00

Tell me pIC50 of `CNC(=O)c1ccccc1Sc1ccc2c(/C=C/c3ccc(OCCN4CCCC4)cn3)n[nH]c2c1` when tested on VEGFR1 (Homo sapiens).
≥ 9.00

###

- method.notes: Thermodynamic solubility test
- Type: physicochemical
- reported.conditions: buffer solution, aqueous buffer, thermodynamic from solid; thermodynamic solubility, room temperature, 8 hours shaking; buffers pH 2.0, 6.5, 7.4 used, pH of the tabulated value not given
The entries below are paired with their reported solubility at 8 h.

compound.string	solubility at 8 h
CCN(CC)Cc1ccc(/C=C/c2n[nH]c3cc(Sc4cc(F)ccc4C(=O)NC4CC4)ccc23)nc1	79.6 µg/mL

Please give measured solubility at 8 h of the following entry: `CNC(=O)c1c(F)cccc1Sc1ccc2c(/C=C/c3ccc(OCCN4CCCC4)cn3)n[nH]c2c1`
16.2 µg/mL

Please give measured solubility at 8 h of the following entry: `CNC(=O)c1cccc(F)c1Sc1ccc2c(/C=C/c3ccc(OCCN4CCCC4)cn3)n[nH]c2c1`
57.7 µg/mL

Please give measured solubility at 8 h of the following entry: `O=C(NC1CC1)c1ccc(F)cc1Sc1ccc2c(/C=C/c3ccc(CN4CCCC4)cn3)n[nH]c2c1`
80.4 µg/mL

Please give measured solubility at 8 h of the following entry: `CNC(=O)c1ccccc1Sc1ccc2c(/C=C/c3ccnn3CCN3CCCC3)n[nH]c2c1`
216 µg/mL

Please give measured solubility at 8 h of the following entry: `CNC(=O)c1ccccc1Sc1ccc2c(/C=C/c3cnn(CCCN4CCCC4)c3)n[nH]c2c1`
327 µg/mL

Please give measured solubility at 8 h of the following entry: `CNC(=O)c1ccccc1Sc1ccc2c(/C=C/c3ccc(OCCC4CCN(C)CC4)cn3)n[nH]c2c1`
177 µg/mL

###

- Tested on: melanin
- method.notes: Compound binding to melanin
- Format: in vitro ADME
- reported.conditions: cuttlefish (Sepia officinalis), melanin suspension (1 mg/mL), percentage of free drug (not bound to melanin), 2 µM compound, melanin 1 mg/mL in PBS pH 7.4, 37°C
The entries below are paired with their reported fraction unbound at 2 h, 2 µM.

Some entries whose results are on file:
compound.string	fraction unbound at 2 h, 2 µM
CCNC(=O)c1ccccc1Sc1ccc2c(/C=C/c3ccc(CN(CC)CC)cn3)n[nH]c2c1	0.01 to 0.05
CN1CCN(c2ccc(/C=C/c3n[nH]c4cc(Sc5ccccc5C(=O)NC5CC5)ccc34)nc2)CC1	0.01 to 0.05
O=C(NC1CC1)c1ccccc1Nc1ccc2c(/C=C/c3ccc(CN4CCCC4)cn3)n[nH]c2c1	0.01 to 0.05
O=C(NC1CC1)c1ccccc1Sc1ccc2c(/C=C/c3ccc(OCCN4CCCC4)cn3)n[nH]c2c1	0.01 to 0.05
CNC(=O)c1cc(F)ccc1Sc1ccc2c(/C=C/c3cnn(CCCN4CCCC4)c3)n[nH]c2c1	> 0.05

Please give measured fraction unbound at 2 h, 2 µM of the following entry: `O=C(NC1CC1)c1ccc(F)cc1Sc1ccc2c(/C=C/c3ccc(CN4CCCC4)cn3)n[nH]c2c1`
> 0.05

Please give measured fraction unbound at 2 h, 2 µM of the following entry: `CNC(=O)c1ccccc1Sc1ccc2c(/C=C/c3ccc(OCCN4CCN(C)CC4)cn3)n[nH]c2c1`
> 0.05

###

The entries below are paired with their reported fraction unbound at 2 h, 2 µM.
- Test system: melanin
- method.notes: Compound binding to melanin
- Type: in vitro ADME
- reported.conditions: cuttlefish (Sepia officinalis), melanin suspension (1 mg/mL), percentage of free drug (not bound to melanin), 2 µM compound, melanin 1 mg/mL in PBS pH 7.4, 37°C

Please give measured fraction unbound at 2 h, 2 µM of the following entry: `CN1CCC(CCOc2ccc(/C=C/c3n[nH]c4cc(Sc5ccccc5C(=O)NC5CC5)ccc34)nc2)CC1`
0.01 to 0.05
